Source: ChEMBL document CHEMBL1201862

Tested on: SNB-19
Assay: NCI tumour cell line growth inhibition, 48 h
Calls of active or inactive are those of the source. Cut-off read from the data, not from the text of the source: active = GI50 up to about 1.1 µM and inactive = higher.
Just give me one of these, please: active, inactive

Worked examples follow.
CCc1nnc(CC)n1N1C(=O)CCC1=O; inactive
COc1ccc(N2C(=O)CC(=O)N(C(=O)COc3ccc(OCC(=O)N4C(=O)CC(=O)N(c5ccc(OC)cc5)C4=S)cc3)C2=S)cc1; inactive

Qu. # outcome recorded in this test, key = O=C(O)C1CSC2(CCCN(Cc3ccccc3)C2)N1 (stereo unspecified)
Ans. inactive

Qu. Could you please tell me the result logged for `O=[N+]([O-])c1cc(C(F)(F)F)cc([N+](=O)[O-])c1CCl` in this assay?
Ans. inactive

Qu. Fill in: this test's call for `Cn1c(=O)oc2cc(C(=S)N3CCCCC3)ccc21` is ___
Ans. inactive

Qu. Short answer needed: outcome of this test for C=C1C=CC2(Br)OC3CC(C)(Cl)C(Br)CC13C2(C)C (stereo unspecified) ?
Ans. inactive

Qu. I'd appreciate the recorded outcome for CCOC(=O)C1CCCc2sc(N)c(C#N)c21 (stereo unspecified) from this test.
Ans. inactive

Qu. Record request — test call for COc1cc(/C=C/C(=O)OCC23CC[C@@]4(C(=O)O)CCC(C)[C@H](C)C4C2=CCC2[C@@]4(C)CC[C@H](O)C(C)(C)C4CC[C@]23C)ccc1O (stereo partly specified)
Ans. inactive

====

Tested on: NCI-H23
Test: NCI tumour cell line growth inhibition, 48 h
Active and inactive are the calls of the source. Rule as the data show it: active = GI50 up to about 1.1 µM and inactive = higher.
Listed compounds paired with reported GI50

Look over these answered cases.
O=C1Nc2ccccc2/C1=N/Nc1nc(-c2ccccc2)cs1; 47.6 µM (inactive)
COc1ccc(/C=N/NC(=O)c2sc(=S)n(-c3ccccc3)c2N)cc1; > 100 µM (inactive)
Fc1cccc(Cl)c1C1SCc2nc3ccccc3n21 (stereo not given); 24.3 µM (inactive)
O=[N+]([O-])c1ccc(Cl)cc1N/N=C/c1cccs1; > 100 µM (inactive)
O=c1/c(=C/c2ccc(-c3ccc(Cl)cc3Cl)o2)sc2n1[C@@H](c1ccc3c(c1)OCO3)C=C(c1cc(F)c(Cl)cc1Cl)N=2; 38.5 µM (inactive)

GI50 recorded for this compound, `Cc1ccc(NC(=O)c2ccccc2C(=O)O)cc1C` , is > 100 µM (inactive)

Lab book: GI50 of `O=C1c2ccccc2-c2nnc3c(c21)Cc1ccccc1C3` noted as > 10 µM (inactive)

Please fill in: GI50 reported for `COC(=O)Nc1nc(=O)c2cc(OC)c(OC)cc2[nH]1` = 50 µM (inactive)

GI50 measured on `CCN(CCCl)c1cc(CN(C)C)cc(NC(=O)c2ccc(C(=O)Nc3cccc(CN(C)C)c3)cc2)c1` = 1.54 µM (inactive)

GI50 recorded for this compound, `CC(C)(C)C(C#N)(C#N)c1ccc(C(C#N)(C#N)C(C)(C)C)nn1` , is > 100 µM (inactive)

====

Recorded GI50 values for a group of compounds are listed next.
System: NCI-H226
Experiment: NCI tumour cell line growth inhibition, 48 h
Activity calls are given as the source filed them. Cut-off read from the data, not from the text of the source: active = GI50 up to about 1.1 µM and inactive = higher.

c1ccc(-c2cc(-c3cc(-c4ccccn4)[nH]n3)n[nH]2)nc1; > 100 µM (inactive)

// recorded GI50 for `Oc1ccc2c(O)cc(-c3ccccc3)nc2c1` : 65.3 µM (inactive)

Notebook: CC(NNC(=O)c1ccncc1)c1ccc(Cl)c(Cl)c1 (stereo not given) , GI50 read as > 100 µM (inactive)

Data point: `CC1=C2N3C[C@@H](n4c(=O)n(C)c(=O)n43)C23CCC1n1c(=O)n(C)c(=O)n13` ; GI50 = > 100 µM (inactive)

Please fill in: GI50 reported for COc1cccc(NC(=O)C(=O)C2C=CCS2(=O)=O)c1 (stereo not given) = > 100 µM (inactive)

====

Overview of recorded GI50 for various molecules
System: OVCAR-3
Test: NCI tumour cell line growth inhibition, 48 h
Active and inactive are the calls of the source. Rule as the data show it: active = GI50 up to about 1.1 µM and inactive = higher.

Example entries begin here.
COc1ccc2c(c1)/C(=C\c1c(Cl)nc3n1CCS3)C(=O)N2; 2.77 µM (inactive)
COc1ccc(C2SCC(=O)N2c2ccc(-n3c(-c4ccccc4)nc4ccccc4c3=O)cc2)cc1OC (stereo unspecified); > 100 µM (inactive)
CCCCCCCCCc1cc(O)c(O)cc1CCCCCCCCC; > 10 µM (inactive)
c1ccc(-c2c(-c3cccs3)[nH]c(-c3cccs3)c2-c2ccccn2)nc1; 24 µM (inactive)
COc1cccc2c1C(=O)c1c(O)c3c(c(O)c1C2=O)C[C@](O)(C(=O)CO)CC3OC1CC(N)C(OC2CCCCO2)C(C)O1 (stereo partly specified); 0.828 µM (active)
COc1ccc(C(Nc2ncccn2)c2cc3c(cc2O)OCO3)cc1 (stereo unspecified); 17.3 µM (inactive)
COc1cc(CNC(=O)CCCCCCCC/C=C/Br)ccc1O; > 10 µM (inactive)
CC(=O)/C(=C/c1ccccc1F)C(=O)c1ccccc1; 18.6 µM (inactive)
c1ccc(C(=NCCC2CNc3ccccc32)c2ccccc2)cc1 (stereo unspecified); > 100 µM (inactive)
O=C1CSC(c2ccccc2)N1c1nc2cc3sc(N4C(=O)CSC4c4ccccc4)nc3cc2s1 (stereo unspecified); 36.6 µM (inactive)

Record summary for CCC1=CC2CN3CCc4c([nH]c5ccccc45)C(C(=O)OC)(C2)C13 (stereo unspecified) : reported GI50 = 42.8 µM (inactive)

Reported GI50 ( NC1=NC(c2ccccc2)CC(c2cc(Cl)cc(Br)c2O)=N1 (stereo unspecified) ) = 15.8 µM (inactive)

molecule CC1=CC(=O)N(c2c(C)cccc2Cl)C(C)N1 (stereo unspecified) , GI50 observed: > 100 µM (inactive)

Looking up `Nc1ccn(CCNCCn2cnc3nc(N)[nH]c(=O)c32)c(=O)n1` , I found its GI50 recorded as > 100 µM (inactive)

Input `O=[N+]([O-])c1ccc2c(c1)/C(=N/N=C1c3ccccc3Cc3ccccc31)c1cc([N+](=O)[O-])cc([N+](=O)[O-])c1-2` . Output GI50: 1.69 µM (inactive)

The molecule listed as `Clc1ccc2ns[s+]c2c1` has a reported GI50 of 31.6 µM (inactive)

Reported GI50 for `CCCCc1ccc(Nc2nc(S)c3ncn(COCCO)c3n2)cc1` was 21 µM (inactive)

GET /value?item= `C=C1CC[C@@H]2[C@](C)(COC(=O)CCC(=O)O)CCC[C@@]2(C)[C@@H]1CCC1=CC(=O)OC1` &field=GI50 returns > 100 µM (inactive)

Lookup result for `COC(=O)/C(=C(\C)NC(C)=O)c1c(C(=O)OC)[nH]c2ccccc12` ; measured GI50: > 100 µM (inactive)

For record `Cc1csc2nc(-c3cccc([N+](=O)[O-])c3)c(/C=N/N=C(N)N)n12` the listed GI50 is 1.62 µM (inactive)

The molecule identified as O=C(CC1(O)C(=O)Nc2ccc([N+](=O)[O-])cc21)c1ccc(Br)cc1 (stereo unspecified) registered its GI50 at 43 µM (inactive)

====

Measured GI50 by item
Test system: 786-0
Assay: NCI tumour cell line growth inhibition, 48 h
Active and inactive are the calls of the source. Rule as the data show it: active = GI50 up to about 1.1 µM and inactive = higher. Non-standard residues stand in square brackets, D forms with d. Residues, ends and D or L forms follow the SMILES beside them. *: point of attachment. NMeF = CN[CH](Cc1ccccc1)C(=O)O; NMeV = CN[CH](C(=O)O)C(C)C; Boc = CC(C)(C)OC(=O)*; OBn = c1ccc(CO*)cc1

Worked examples follow.
CC(C)C(NC(=O)OC(C)(C)C)C(=O)N(C)C(Cc1ccccc1)C(=O)N(C)C(C(=O)OCc1ccccc1)C(C)C (stereo not drawn) (Boc-Val-[NMeF]-[NMeV]-OBn; configuration not given here); > 100 µM (inactive)
Clc1ccc2ns[s+]c2c1; 53.8 µM (inactive)
COC(=O)C(=O)C(C(=O)C(=O)Nc1ccc([N+](=O)[O-])cc1[N+](=O)[O-])c1nc2ccc([N+](=O)[O-])cc2nc1O (stereo not given); > 100 µM (inactive)

// molecule `CCN(C)c1nc(N(C)CC)c2nc(N(C)CC)nc(N(C)CC)c2n1` , assay 786-0, GI50 value: > 100 µM (inactive)

Entry FC(F)(F)c1ccc2c(c1)nc(Cc1ccc(Cl)cc1)n2CC1CCCN2CCCCC12 (stereo not given) , 786-0 data, GI50 value: 7.67 µM (inactive)

====

Test system: TK-10
Assay: NCI tumour cell line growth inhibition, 48 h
Activity calls are given as the source filed them. No stated cut-off is given here; in the data, active = GI50 up to about 1.1 µM and inactive = higher.
Output constraint: value belongs to yes for active, no for inactive

# example entries with known answers
CN1c2ccccc2S(=O)(=O)n2c(COc3ccccc3)nnc21; no
Cc1cc(SCC(=O)c2ccccc2)nc2ccccc12; no
CN1C(=O)C(=CNc2ccccc2Cl)C(=O)N(C)C1=O; no
Nc1nc(Cl)cc(NCCO)n1; no
C1CCSCCCCSCCCCSCCCCSC1; no
C[C@]12CC[C@H]3[C@@H](CCC4=CC(=O)CC[C@@H]43)[C@@H]1CC[C@]2(O)C(N)=O; no
Cc1ccc(C2=CC(=O)/C(=C\C(=O)c3ccc(Cl)cc3)O2)cc1; no
COc1cc2c(c(OC)c1OC)-c1ccc(OC)c(=O)cc1[C@@H](NC(C)=O)CC2; no

Qu. Identify the outcome logged in this assay for the compound shown: `Cc1cc(O)c2c(c1)C(=O)C=C(Br)C2=O`
Ans. no

Qu. // param item: `COc1ccc2c(c1)C(=O)C(=O)c1cc(O)c(OC)c(OC)c1-2` ; yields the recorded call
Ans. yes

Qu. Returns: the outcome recorded for Cc1cc(C)c2c(=O)n(CC(O)CN3CCN(c4ncccn4)CC3)sc2n1 (stereo unspecified) in this assay.
Ans. no
